Molecular target: RORγ (UniProt P51449)
Construct: hRORg-LBD|aa259-518|NP_005051.2; hRORgt|aa1-497|NP_001001523 (RORg, t isoform, 497aa); mRORg-LBD|aa264-516|NP_035411
Type: cell-based
Settings: renilla normalised (RENnorm) luciferase, 293T cells, 16 h
Experimental: Determination of a ligand mediated Gal4 promoter driven transactivation to quantify ligand binding to RORγ was performed as follows: DNA encoding three different RORγ. protein fragments was cloned into vector pCMV-BD (Stratagene). Expression was under control of a CMV promoter and as fusion to the DNA-binding domain of the yeast protein GAL4. […]
quantityKind: pIC50 (REN)

molecularString: Cc1c(C(=O)NCCC(C)(C)C(=O)O)cn(-c2cc(C(C)(C)C)cc(C3(C)CC3)c2)c1CC1CCCCC1
testedTarget: RORγ (UniProt P51449)
quantityKind: pIC50 (REN)
reported: 7.2

molecularString: CC(C)(C)c1cc(-c2nc(C(N)=O)nn2CC2CCCCC2)cc(C(C)(C)C)c1
testedTarget: RORγ (UniProt P51449)
quantityKind: pIC50 (REN)
reported: 6.0

molecularString: Cc1c(S(=O)(=O)CC2CC2)cc(-c2cc(C(C)(C)C)cc(C(C)(C)C)c2)n1CC1CCCCC1
testedTarget: RORγ (UniProt P51449)
quantityKind: pIC50 (REN)
reported: 6.1

molecularString: Cc1c(C(=O)NC2CCOCC2)cn(-c2ccc(S(=O)(=O)NC(C)(C)C)c(C(C)(C)C)c2)c1CC1CCCCC1
testedTarget: RORγ (UniProt P51449)
quantityKind: pIC50 (REN)
reported: 7.5

molecularString: C[C@H](NC(=O)c1cc(-c2cc(C(=O)N[C@H]3C[C@H](C(=O)O)C3)n(C)c2CC2CCCCC2)cc(C2(C)CC2)c1)C(F)(F)F
testedTarget: RORγ (UniProt P51449)
quantityKind: pIC50 (REN)
reported: 7.9

Entry CC(C)(C)NS(=O)(=O)c1ccc(-n2nc(C(=O)NC3CCOCC3)nc2CC2CCCCC2)cc1C(C)(C)C , system RORγ (UniProt P51449): what pIC50 (REN) was measured?
6.2

One more compound: CC(C)(C)c1cc(-c2[nH]c(C(=O)N[C@H]3C[C@H](C(=O)O)C3)cc2CC2CCCCC2)cc(C2(C)CC2)c1
6.6
